Target Or Test System: T1, exon 6 peptide (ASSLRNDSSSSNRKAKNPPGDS), coated on ELISA plate (not fully specified)
T1 construct: No biotin is mentioned for the ELISA coat; also called a peptide of SCF248
T1 peptide: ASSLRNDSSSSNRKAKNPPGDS
Protocol Notes: direct ELISA on coated peptide, IgG4, read at 450 nm
Items are presented alongside their recorded absorbance at 0.1 ng/mL antibody.
Experimental Readout: absorbance at 0.1 ng/mL antibody (absorbance)

| Binder | Units Symbol | Recorded Number |
| --- | --- | --- |
| D14P mutant expressed as full length IgG4 antibody (antibody, V domains shown, Full length IgG4) VH: QVQLVQSGAELKKPGSSVKISCKSSGYAFSSQWMNWVKQRPGQGLEWIGQIYPGDDDTHYNDKFKGKATLTADKSTSTAYMELSSLTSEDSAVYFCSSSNWVGSYWGQGTLVTVSS VL: DVVMTQSPLSLPVTLGQPASISCKSSQSLLESDGNTYLNWLQQRPGQSPRRLIYLVDRLDLGVPDRFSGSGSGTDFTLKISRVEAEDVGVYYCWQGTDLPQTFGGGTKVEIK | absorbance | 0.137 |
| A84P mutant expressed as full length IgG4 antibody (antibody, V domains shown, Full length IgG4) VH: QVQLVQSGAELKKPGSSVKISCKSSGYAFSSQWMNWVKQRPGQGLEWIGQIYPEDGDTHMNGKFKGKATLTADKSTSTAYMELSSLTSEDSAVYFCSSSNWVGSYWGQGTLVTVSS VL: DVVMTQSPLSLPVTLGQPASISCKSSQSLLEEDGNTYLNWLQQRPGQSPRRLIYLVDRLDIGVPDRFSGSGSGTDFTLKISRVEAEDVGVYYCWQGTDLPQTFGGGTKVEIK | absorbance | 0.131 |
| H74P mutant expressed as full length IgG4 antibody (antibody, V domains shown, Full length IgG4) VH: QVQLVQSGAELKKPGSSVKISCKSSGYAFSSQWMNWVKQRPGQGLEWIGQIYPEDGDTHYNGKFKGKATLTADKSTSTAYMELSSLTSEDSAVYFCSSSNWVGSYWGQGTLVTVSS VL: DVVMTQSPLSLPVTLGQPASISCKSSQSLLEEDGNTYLNWLQQRPGQSPRRLIYLVDRLDLGVPDRFSGSGSGTDFTLKISRVEAEDVGVYYCWQGSHLPQTFGGGTKVEIK | absorbance | 0.105 |

These data points were gathered from patent US20240182556A1.
